All values here come from PubChem BioAssay (NCI).

Each item that follows carries a reported TGI.
Test system: RXF 393 renal
Assay Summary: NCI tumour cell line growth inhibition, 48 h
Answer with a number only, understood to be in µM.

Worked cases, answers included:
CCCCCCCC(=O)NC(C)(C)C(=O)NCC(=O)NC(CC(C)C)C(=O)NC(C)(C)C(=O)NCC(=O)NCC(=O)NC(CC(C)C)C(=O)NC(C)(C)C(=O)NCC(=O)NC(C(=O)NC(CO)CC(C)C)C(C)CC (stereo not drawn) :: 7.97
COc1cc(O)c(C(=O)C2Cc3ccccc32)c(OC)c1 (stereo not drawn) :: 69.4
CCOC(=O)C1=C(C)N(NC(=O)Nc2ccccc2)C2(N)N(NC(=O)Nc3ccccc3)C(C)=C(C(=O)OCC)C12C#N (stereo not drawn) :: 27.7
COC(=O)c1sc2c(c1C(=O)OC)C(=Nc1ccc(OC)cc1)SC2=Nc1ccc(OC)cc1 :: 1.72
COc1ccc(Cl)cc1NC(=O)O/N=C(\Cl)C(C)C :: 17.4

What TGI value was documented for this molecule, CC(=O)O[C@H]1CSC[C@@H](OC(C)=O)C1[N+](=O)[O-] (stereo partly drawn) ? 36.1

And what about the molecule CC(C)C1OC(=O)C(Cc2ccccc2)N(C)C(=O)C(C(C)C)OC(=O)C(Cc2ccccc2)N(C)C(=O)C(C(C)C)OC(=O)C(Cc2ccccc2)N(C)C1=O (stereo not drawn) ? 2.33

Same lookup for CO[C@H]1C[C@H](O[C@H]2CC[C@@]3(C)[C@H](CC[C@@H]4[C@@H]3CC[C@]3(C)[C@@H](C5=CC(=O)OC5)CC[C@]43O)C2)O[C@H](C)[C@H]1O , please. 0.0105

Subsequent entry: CN(CCNC(=O)c1nn(C)c2c1Cc1ccccc1-2)CCNC(=O)c1nn(C)c2c1Cc1ccccc1-2 29.5

* * *

System: T-47D breast
Assay Summary: NCI tumour cell line growth inhibition, 48 h; in the data active = GI50 below about 0.43 µM; inactive = the rest
Parameter call: string, one of label 1 (active), label 0 (inactive)

# example entries with known answers
COc1cc2c3c(c4cc(OC)c(OC)cc4c2cc1OC)CN1CCC[C@H]1C3 :: label 1
COc1cc([C@@H]2c3cc4c(cc3[C@@H](OC3OC5COC(C)OC5C(O)C3O)[C@H]3COC(=O)[C@H]23)OCO4)cc(OC)c1O (stereo not given in full) :: label 0

Hello, I am checking results. What call was entered for COc1cccc(/C=C\C(=O)c2ccccc2)c1 ? label 0

Let us now turn to CSc1ccc(-c2cn3ccsc3n2)cc1 label 0

Now the same for CNC(=O)c1sc(-n2cnc3cc(OC)c(OC)cc32)cc1OCc1ccccc1C(F)(F)F label 0

* * *

Tested on: NCI/ADR-RES ovarian
Assay Summary: NCI tumour cell line growth inhibition, 48 h; in the data active = GI50 below about 0.43 µM; inactive = the rest
Bench note: report the call from 1 = active, 0 = inactive

Which result was noted for this compound in the test: COC(=O)[C@]12CC[C@@H](C)[C@H](C)[C@@H]1C1=CC[C@@H]3[C@@]4(C)C[C@@H](OC(C)=O)[C@H](OC(C)=O)[C@@](C)(COC(C)=O)[C@@H]4[C@H](O)C[C@@]3(C)[C@]1(C)CC2 0

How about OC[C@H]1C[C@](O)(c2ccccc2Cl)[C@@H](c2ccccc2Cl)O1 ? 0

What would you report for COc1cccc(/C=C\C(=O)c2ccccc2)c1 ? 0

Now consider CCOC(=O)c1c(CN2CCCCC2)nc2ccc(Cl)cc2c1-c1ccccc1 and answer again. 0

Cool, now Cc1cnc(C(=O)Nc2nc3ccc(S(=O)(=O)Nc4ccc(C(C)(C)C)cc4)cc3[nH]2)cn1 1

Try this compound next: O=C(O)CCCCCNCc1cc2cc3c(cc2c2cc(OCc4ccccc4)ccc12)OCO3 0

Okay, and CCCCCCCCCC(=O)Oc1ccc(/C(=C(/C)c2ccccc2)c2ccc(OCCN3CCCC3)cc2)cc1 ? 0

Then what about the compound NS(=O)(=O)c1cccc(Nc2cc(-c3ccc(F)cc3)[nH]n2)c1 ? 0

* * *

Tested on: A549 NSCLC
Assay Summary: NCI tumour cell line growth inhibition, 48 h
Measured GI50 by item

Worked set:
COc1cc(OC)c(/C=C/S(=O)(=O)Cc2ccc(OC)c(N)n2)c(OC)c1 :: < 0.01 µM
C=C(CN1CCN(c2cc(C(F)(F)F)cc(C(F)(F)F)c2)CC1)c1ccc(C(=O)Nc2ccccc2N)cc1 :: 19 µM

We now examine a further compound.
Please look up its GI50: COc1cc(/C=N/NC(=O)c2cnn3c2NC(c2ccccc2)C3)ccc1OCc1ccccc1 (stereo not drawn) 1.17 µM

* * *

System: IGROV1 ovarian
Assay Summary: NCI tumour cell line growth inhibition, 48 h
Below: a set of entries, each annotated with reported TGI.

Some solved entries appear below for comparison.
Cc1csc(NCc2ccc(Cl)cc2)n1 :: > 100 µM
COc1ccc(/C(=C(\c2ccccc2)[N+](=O)[O-])c2ccc(OCCN3CCCC3)cc2)cc1 :: 17.3 µM

Suppose we examine the compound CCC(CCCC[C@H]1CC[C@@H]2CC(=O)C[C@H]12)OC (stereo partly drawn) ; what TGI value has been reported? > 100 µM

Moving on to NS(=O)(=O)c1cccc(Nc2cc(-c3ccc(F)cc3)[nH]n2)c1 > 25 µM

Ok, now CN1CCN(Cc2ccc(NC(=O)c3cncc(C#Cc4c(N)ncc5ccccc45)c3)cc2C(F)(F)F)CC1 1.2 µM

Same question, O=[N+]([O-])c1ccc(CSC2=C(c3ccc(Cl)cc3)S/C(=C3\SC(SCc4ccc([N+](=O)[O-])cc4)=C(c4ccc(Cl)cc4)S3)S2)cc1 this time > 100 µM

Another compound to check: C[N+]1(CC[N+]2(C)CCCC2c2cccnc2)CCCC1c1cccnc1 (stereo not drawn) > 100 µM

Try CC(C)C(Sc1nc(N)nc2nc[nH]c12)C(=O)O (stereo not drawn) next. > 100 µM

* * *

System: SW-620 colon
Assay Summary: NCI tumour cell line growth inhibition, 48 h
Value Type: TGI (µM)
Number only, in µM; omit the unit.

Worked examples follow.
CO[C@H]1C[C@H](O[C@H]2CC[C@@]3(C)[C@H](CC[C@@H]4[C@@H]3CC[C@]3(C)[C@@H](C5=CC(=O)OC5)CC[C@]43O)C2)O[C@H](C)[C@H]1O :: 0.113
NS(=O)(=O)c1ccc(Nc2c3ccccc3nc3c(C(=O)NC(CO)(CO)CO)cccc23)cc1 :: 0.435
O=C1N[C@@H]([C@H]2CC[C@H](Cl)CN2)C(=O)N[C@H]1[C@H]1CC[C@H](Cl)CN1 :: 29.4

Can you share its TGI? I mean this molecule: CCCCCn1sc(=O)n(Cc2ccc(CNC(=O)C(C)c3ccc(CC(C)C)cc3)cc2)c1=O (centres undefined) 1.46

* * *

Tested on: SNB-78 CNS
Assay Summary: NCI tumour cell line growth inhibition, 48 h
Listed next: entries and their corresponding TGI.

Examples with their reported TGI follow.
COC(=O)CC(=O)OC1C[C@@H]2CCC3C(C)(C)CCC[C@]3(C)C23CC[C@@]1(C)C3 (some centres not stated) :: 42.5 µM
CCn1c(=O)nc2n(-c3ccc(SC)cc3)c3ccccc3nc-2c1=O :: > 100 µM
C(=C\c1ccc2ccccc2c1Nc1ccccc1)/c1ccccc1 :: > 91.8 µM

Need TGI, item O=C1CCNC/C1=C\c1ccccc1 > 100 µM

Repeat for the following compound: N/N=C1/C(=O)N(c2ccc(Cl)cc2)C(=O)C(=O)C1c1nc2ccccc2s1 (configuration not stated) > 100 µM

Moving on to CC(=O)O[C@H]1CSC[C@@H](OC(C)=O)C1[N+](=O)[O-] (some centres not stated) > 100 µM

Next up: C=C1C(C)C2C(Cc3ccccc3)NC(=O)C23C(OC(C)=O)C=CC(C)(O)C(=O)C(C)C/C=C/C3C1O (configuration not stated) 1.55 µM

* * *

Test system: K-562 leukemia
Assay Summary: NCI tumour cell line growth inhibition, 48 h; in the data active = GI50 below about 0.43 µM; inactive = the rest
Thanks in advance; please answer with one of these: True = active, False = inactive

ClC/C=C/CSc1ncnc2nc[nH]c12 :: False

What is the recorded call for this compound in the test? CC(=O)[CH-]C(=O)c1ccccc1.CC(=O)[CH-]C(=O)c1ccccc1.Cl.[O-]CCc1ccccn1.[O-]CCc1ccccn1.[Ti+4] False

Now the compound Cc1cnc(C(=O)Nc2nc3ccc(S(=O)(=O)Nc4ccc(C(C)(C)C)cc4)cc3[nH]2)cn1 True

Now try CC(C)(C)n1cc(-c2ccnc(NCCCNS(=O)(=O)c3cccc4ccccc34)c2)c(-c2cccc(O)c2)n1 . False

CNC(=O)c1sc(-n2cnc3cc(OC)c(OC)cc32)cc1OCc1ccccc1C(F)(F)F ? False

Now the compound CCCCCn1sc(=O)n(Cc2ccc(CNC(=O)C(C)c3ccc(CC(C)C)cc3)cc2)c1=O (stereo not drawn) False

Now this one: Cc1ccc2nc(CN(CCN(Cc3nc4ccc(C)cc4[nH]3)Cc3nc4ccc(C)cc4[nH]3)Cc3nc4ccc(C)cc4[nH]3)[nH]c2c1 False

How about this compound: COC(=O)c1sc(-n2cnc3cc(OC)c(OC)cc32)cc1OCc1ccccc1C(F)(F)F False
